Cited source: patent US6566080

targetSystem: T1, wild-type human CCK-B/gastrin receptor (human, UniProt P32239 1-447)
T1 construct: Expressed from hCCKB-pcDNA I in transiently transfected COS-7 cells (also in stably transfected CHO cells); also called hCCK-B; human brain CCK-B receptor
T1 sequence: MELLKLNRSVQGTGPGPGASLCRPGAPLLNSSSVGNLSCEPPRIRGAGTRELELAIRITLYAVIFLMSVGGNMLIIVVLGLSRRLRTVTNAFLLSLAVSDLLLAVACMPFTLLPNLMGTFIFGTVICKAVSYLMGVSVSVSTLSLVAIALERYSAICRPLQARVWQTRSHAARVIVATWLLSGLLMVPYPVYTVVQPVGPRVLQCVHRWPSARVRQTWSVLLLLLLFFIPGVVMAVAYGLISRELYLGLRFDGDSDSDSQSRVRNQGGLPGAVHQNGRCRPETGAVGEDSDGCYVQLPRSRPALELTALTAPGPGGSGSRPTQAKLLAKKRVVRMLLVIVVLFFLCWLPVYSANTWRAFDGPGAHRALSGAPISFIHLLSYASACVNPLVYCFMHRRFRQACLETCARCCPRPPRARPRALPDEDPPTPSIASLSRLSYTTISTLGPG
assayExplanation: ^125I-CCK-8 competition binding on transfected COS-7 cells
Ends that are not written are not given here.
valueType: Ki (nM)
Please reply with the bare figure in nM and do not write the unit itself.

# lookup: Ki of QGPWLEEEEEAYGWMDF (peptide, UniProt P01350 76-92, looked up, not fully specified (residue 1, C-terminus), domain: gastrin-17) [Gastrin I (unsulphated gastrin-17)]
1.35
